B1: TET3 peptide 1705-1720 (methylcytosine dioxygenase TET3), 16-mer library wild type / USP8 rhodanese domain (ubiquitin carboxyl-terminal hydrolase 8, residues 174-317) (parent)
chain 1: GLALWEAKMKQLAERA
chain 2: KCETKEKGAITAKELYTMMTDKNISLIIMDARRMQDYQDSCILHSLSVPEEAISPGVTASWIEAHLPDDSKDTWKKRGNVEYVVLLDWFSSAKDLQIGTTLRSLKDALFKWESKTVLRNEPLVLEGGYENWLLCYPQYTTNAKV

Variants of: B1
Assay: peptide-phage display deep mutational scan (M13, 16-mer library, displayed with a C-terminal GGGSG linker encoded by the 3' flank) selected against the GST-tagged USP8 rhodanese domain, four rounds; NGS counts summed over selection …
Settings: with USP8 rhodanese domain (ubiquitin carboxyl-terminal hydrolase 8, residues 174-317), 10 µg GST-bait on MaxiSorp, pre-cleared on GST, 2 h at 4 °C, five washes with 0.05% Tween 20 in PBS, not graded, scale: average over two replicas of the peptide's fractional NGS count
MEASURED ENDPOINT: screen value

sequence="chain 1 GLALWEAKMKQLAEHA [chain 1 R15H]" measured_endpoint="screen value" reported=0.000187
sequence="chain 1 GLKLWEAKMKQLAERA [chain 1 A3K]" measured_endpoint="screen value" reported=1.3e-05
sequence="chain 1 GLALWEAKMKQLGERA [chain 1 A13G]" measured_endpoint="screen value" reported=0.0144
sequence="chain 1 GLALWEAKMKQLAERE [chain 1 A16E]" measured_endpoint="screen value" reported=0.00115
sequence="chain 1 GLALWEAKMKVLAERA [chain 1 Q11V]" measured_endpoint="screen value" reported=8.66e-06
sequence="chain 1 GLALWAAKMKQLAERA [chain 1 E6A]" measured_endpoint="screen value" reported=8.66e-06
sequence="chain 1 GLGLWEAKMKQLAERA [chain 1 A3G]" measured_endpoint="screen value" reported=3.88e-05
sequence="chain 1 GLAEWEAKMKQLAERA [chain 1 L4E]" measured_endpoint="screen value" reported=9.1e-05
sequence="chain 1 GLADWEAKMKQLAERA [chain 1 L4D]" measured_endpoint="screen value" reported=4.33e-06
sequence="chain 1 GLALWEAKMGQLAERA [chain 1 K10G]" measured_endpoint="screen value" reported=0.00596
sequence="chain 1 GLALWEAKMKQLAEMA [chain 1 R15M]" measured_endpoint="screen value" reported=0.000392
sequence="chain 1 GLALWENKMKQLAERA [chain 1 A7N]" measured_endpoint="screen value" reported=0.000194
sequence="chain 1 GLALWEAKHKQLAERA [chain 1 M9H]" measured_endpoint="screen value" reported=3.75e-05
sequence="chain 1 GLALWEAKMKQLPERA [chain 1 A13P]" measured_endpoint="screen value" reported=5.48e-05
sequence="chain 1 GLALWEAKMKRLAERA [chain 1 Q11R]" measured_endpoint="screen value" reported=0.000162
sequence="chain 1 GLALWEAKMKQLAEKA [chain 1 R15K]" measured_endpoint="screen value" reported=0.000386
sequence="chain 1 GLALHEAKMKQLAERA [chain 1 W5H]" measured_endpoint="screen value" reported=4.33e-06
sequence="chain 1 GLALWEAKMKQLAERD [chain 1 A16D]" measured_endpoint="screen value" reported=0.027
sequence="chain 1 GLALWEAKMKQLAELA [chain 1 R15L]" measured_endpoint="screen value" reported=0.000427
sequence="chain 1 GLALWEIKMKQLAERA [chain 1 A7I]" measured_endpoint="screen value" reported=3.9e-05
sequence="chain 1 GLAPWEAKMKQLAERA [chain 1 L4P]" measured_endpoint="screen value" reported=4.33e-06
sequence="chain 1 GLALWEAKMVQLAERA [chain 1 K10V]" measured_endpoint="screen value" reported=0.00689
sequence="chain 1 GLALWEWKMKQLAERA [chain 1 A7W]" measured_endpoint="screen value" reported=0.0002
sequence="chain 1 GLALWEAKMWQLAERA [chain 1 K10W]" measured_endpoint="screen value" reported=0.00214
